Reference for the values: PubChem BioAssay AID1159580

test: chemical genetic growth profiling, strain panel (AID 1159580);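 note: tested at 20 µM; growth read once vehicle control cultures reached saturation at 30 °C; 1 = growth at the plate median or of vehicle wells; lower values mean less growth of the strain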; details: S. cerevisiae deletion strains, growth OD, locus YNL250W, strain rad50, stronger effect = lower value
Hit rate of the full screen: of about 5,500 compounds, about 2,000 (36%) were called active. Another 18% or so got no clear call; they are omitted. This is one part of the list.

[
  {
    "Compound": "C=C1CCC(C2CC(=O)OC2=O)C(=O)CCC2C1CC2(C)C (stereo not given)",
    "normalized growth": 1.03
  },
  {
    "Compound": "CCCCOC(=O)c1ccccc1C(=O)OCc1ccccc1",
    "normalized growth": 0.968
  },
  {
    "Compound": "C/C1=C\\CCC(=O)C2CC(C)(C)C2CC1 (stereo not given)",
    "normalized growth": 1.07
  },
  {
    "Compound": "O=C(O)c1ccccc1-c1c2cc(Br)c(=O)cc-2oc2[c]([Hg])c(O)c(Br)cc12",
    "normalized growth": 0.0998
  },
  {
    "Compound": "CC(C)COCC(CN(Cc1ccccc1)c1ccccc1)N1CCCC1 (stereo not given)",
    "normalized growth": 0.957
  },
  {
    "Compound": "O=C1NC(=O)C(=O)C(=O)N1",
    "normalized growth": 0.995
  },
  {
    "Compound": "O=c1cc[nH]c(=S)[nH]1",
    "normalized growth": 1.01
  },
  {
    "Compound": "CCC(C)(C)C(=O)O[C@H]1C[C@@H](C)C=C2C=C[C@H](C)[C@H](CC[C@@H]3C[C@@H](O)CC(=O)O3)[C@H]21",
    "normalized growth": 0.988
  },
  {
    "Compound": "COC(=O)C[C@H]1C(C)(C)C(=O)[C@@H]2CC3=C(CC[C@]4(C)C3=CC(=O)O[C@H]4c3ccoc3)[C@@]1(C)C2=O",
    "normalized growth": 1.02
  },
  {
    "Compound": "COc1ccc(CCN2CCC(Nc3nc4ccccc4n3Cc3ccc(F)cc3)CC2)cc1",
    "normalized growth": 0.988
  },
  {
    "Compound": "OCc1ccccc1O",
    "normalized growth": 0.986
  },
  {
    "Compound": "CC(C)[C@@H]1CC[C@@H](C)C[C@H]1O",
    "normalized growth": 1.02
  },
  {
    "Compound": "CO/N=C(\\C(=O)N[C@@H]1C(=O)N2C(C(=O)O)=C(CSc3nc(=O)c(O)nn3C)CS[C@H]12)c1csc(N)n1",
    "normalized growth": 0.951
  },
  {
    "Compound": "CCNC(=O)CC[C@H](N)C(=O)O",
    "normalized growth": 0.975
  },
  {
    "Compound": "CC(C)(C)CC(C)(C)c1ccc(O)c(Cc2ccc(Cl)cc2Cl)c1",
    "normalized growth": 1.02
  },
  {
    "Compound": "CCCCCCOc1ccccc1C(N)=O",
    "normalized growth": 0.871
  },
  {
    "Compound": "CCC(C)c1cnc(CC(C)C)c(=O)n1O (stereo not given)",
    "normalized growth": 0.906
  },
  {
    "Compound": "CC1OC1P(=O)(O)O (stereo not given)",
    "normalized growth": 0.952
  },
  {
    "Compound": "CC1(C)OC(=O)C=CC2(C)C1CC(O)C1(C)C2CCC2(C)C(c3ccoc3)OC(=O)C3OC321 (stereo not given)",
    "normalized growth": 1.01
  },
  {
    "Compound": "CC(C)NCC(O)c1cc(O)cc(O)c1 (stereo not given)",
    "normalized growth": 0.979
  },
  {
    "Compound": "C=C1C(C)C2C(Cc3ccccc3)NC(=O)C23OC(=O)/C=C/C(O)CCCC(C)C/C=C/C3C1O (stereo not given)",
    "normalized growth": 1
  },
  {
    "Compound": "CCN(CC)C(=O)c1cccc(C)c1",
    "normalized growth": 0.994
  },
  {
    "Compound": "COc1ccc([C@H]2Oc3cc(OC)cc(OC)c3C[C@H]2O)cc1",
    "normalized growth": 1.05
  },
  {
    "Compound": "CCCC(=O)O[C@]1(C(=O)CO)CCC2[C@@H]3CCC4=CC(=O)CC[C@]4(C)C3[C@@H](O)C[C@@]21C (stereo not given in full)",
    "normalized growth": 0.983
  },
  {
    "Compound": "CC(C)C(=O)Nc1ccc([N+](=O)[O-])c(C(F)(F)F)c1",
    "normalized growth": 0.989
  },
  {
    "Compound": "COc1ccc2c(c1OC)C(=O)OC2[C@H]1c2c(cc3c(c2OC)OCO3)CCN1C (stereo not given in full)",
    "normalized growth": 0.985
  },
  {
    "Compound": "COc1c2ccoc2c(OC)c2oc(=O)ccc12",
    "normalized growth": 0.988
  },
  {
    "Compound": "Cn1c(=O)c2[nH]cnc2n(C)c1=O",
    "normalized growth": 0.979
  },
  {
    "Compound": "CCCCNc1ccc(C(=O)OCCN(C)C)cc1",
    "normalized growth": 0.998
  },
  {
    "Compound": "Oc1ccc(Cl)cc1Cc1cc(Cl)ccc1O",
    "normalized growth": 0.0758
  },
  {
    "Compound": "COc1ccc2c(c1)O[C@H]1c3ccc(OC)cc3OC[C@@H]21",
    "normalized growth": 0.993
  },
  {
    "Compound": "CC[C@H](C)C(=O)O[C@H]1CCC=C2C=C[C@H](C)C(CCC3C[C@@H](O)CC(=O)O3)[C@H]21 (stereo not given in full)",
    "normalized growth": 0.977
  },
  {
    "Compound": "CO/N=C(\\C(=O)N[C@@H]1C(=O)N2C(C(=O)O)=C(COC(C)=O)CS[C@H]12)c1csc(N)n1",
    "normalized growth": 1.01
  },
  {
    "Compound": "COc1ccc2c(c1O)OCC1c3cc4c(cc3OC21)OCO4 (stereo not given)",
    "normalized growth": 0.994
  },
  {
    "Compound": "O=C1[C@H](CCC(O)c2ccc(F)cc2)[C@@H](c2ccc(O)cc2)N1c1ccc(F)cc1 (stereo not given in full)",
    "normalized growth": 0.974
  },
  {
    "Compound": "C=C1C(C)C2C(Cc3ccccc3)NC(=O)C23OC(=O)/C=C/C(=O)CCCC(C)C/C=C/C3C1O (stereo not given)",
    "normalized growth": 1.01
  },
  {
    "Compound": "COc1c(OC)c2occc2c2oc(=O)ccc12",
    "normalized growth": 0.989
  },
  {
    "Compound": "O=C(O)c1cc2cc(Cc3cccnc3)ccc2o1",
    "normalized growth": 0.989
  },
  {
    "Compound": "C=C1CCC(=O)C(C)CCC2C1CC2(C)C (stereo not given)",
    "normalized growth": 1.01
  },
  {
    "Compound": "C=C1C(=O)O[C@@H]2C[C@@]3(C)CCC[C@H](C)C3=C[C@H]12",
    "normalized growth": 0.949
  }
]
